- testSystem: Recombinant BTK^WT kinase (Homo sapiens)
- protocolDetails: BTK WT binding affinity (LanthaScreen TR-FRET)
- conditionNotes: Kinase Tracer 236, 5 h incubation
- Experimental: BTK^WT binding affinity of each compound tested was determined using a time-resolved fluorescence resonance energy transfer (TR-FRET) methodology. 2.5 nM Recombinant BTK^WT kinase, varying concentrations of inhibitor, 2 nM LanthaScreen™ Eu anti-His Antibody and 15 nM Kinase Tracer 236 was incubated in 1× LanthaScreen™ Kinase Buffer A for 5 h. […] The TR-FRET signal was read on a plate reader with an excitation wavelength of 340 nm and detection wavelengths of 615 and 665 nm. […]
pIC50: −log10 of the molar value.
Measured pIC50, listed per entry.

Here is how some compounds turned out for pIC50.
compound | readoutValue
COc1ccccc1C(=O)NCc1ccc(-c2nn(C3Cc4ccccc4C3)c(N)c2C(N)=O)cc1 | > 8.00
COc1ccc(F)cc1C(=O)NCc1ccc(-c2nn(CC(C)C(F)(F)F)c(N)c2C(N)=O)cc1 (centres unmarked) | > 8.00
COc1ccccc1C(=O)NCc1ccc(-c2nn(C)c(N)c2C(N)=O)cc1 | 7.00 to 8.00
COc1ccccc1C(=O)NCc1c(F)cc(-c2nn(C3CCCC3)c(N)c2C(N)=O)cc1F | 7.00 to 8.00
COc1ccc(F)cc1C(=O)NCc1ccc(-c2nn(C(C)C(F)F)c(N)c2C(N)=O)cc1 (centres unmarked) | > 8.00
COc1ccc(F)cc1C(=O)NCc1ccc(-c2nn(C3CCCC3)c(N)c2C(N)=O)cc1 | > 8.00
COc1ccccc1C(=O)NCc1ccc(-c2nn(C3CCOCC3(C)C)c(N)c2C(N)=O)cc1 (centres unmarked) | 7.00 to 8.00

# context switch: different compound, same pIC50
I'm curious: which pIC50 was measured for COc1ccc(F)cc1C(=O)NCc1ccc(-c2nn(C3CCCOC3)c(N)c2C(N)=O)cc1F (centres unmarked) tested on Recombinant BTK^WT kinase (Homo sapiens)?
> 8.00

====

- testSystem: Recombinant BTK^C481S kinase (Homo sapiens, UniProt Q06187, C481S)
- Sequence (Q06187 whole entry C481S): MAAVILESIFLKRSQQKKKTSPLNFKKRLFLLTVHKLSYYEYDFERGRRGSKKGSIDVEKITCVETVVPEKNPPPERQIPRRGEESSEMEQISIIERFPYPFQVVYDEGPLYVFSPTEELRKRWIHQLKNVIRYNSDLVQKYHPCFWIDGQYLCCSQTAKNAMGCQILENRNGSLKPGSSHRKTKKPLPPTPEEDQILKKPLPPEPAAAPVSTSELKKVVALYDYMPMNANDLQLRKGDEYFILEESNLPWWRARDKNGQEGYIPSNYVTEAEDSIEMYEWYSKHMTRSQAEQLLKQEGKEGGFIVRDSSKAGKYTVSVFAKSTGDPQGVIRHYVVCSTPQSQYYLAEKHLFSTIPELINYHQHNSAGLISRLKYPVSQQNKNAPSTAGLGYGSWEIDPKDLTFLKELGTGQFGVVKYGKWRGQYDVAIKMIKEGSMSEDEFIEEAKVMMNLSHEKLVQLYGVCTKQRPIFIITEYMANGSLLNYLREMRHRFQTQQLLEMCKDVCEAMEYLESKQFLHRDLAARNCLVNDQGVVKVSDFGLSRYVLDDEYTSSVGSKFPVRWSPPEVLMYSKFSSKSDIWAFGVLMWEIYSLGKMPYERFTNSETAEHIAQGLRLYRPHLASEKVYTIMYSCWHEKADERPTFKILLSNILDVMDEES
- protocolDetails: BTK C481S binding affinity (LanthaScreen TR-FRET)
- conditionNotes: Kinase Tracer 236, 5 h incubation
pIC50: −log10 of the molar value.
assayEndpoint: pIC50

Can you share its pIC50? I mean this molecule: COc1ccccc1C(=O)NCc1ccc(-c2nn(C3CCC3)c(N)c2C(N)=O)cc1 [Example 35]
> 8.00

Also COc1ccccc1C(=O)NCc1cc(F)c(-c2nn(C3CCCC3)c(N)c2C(N)=O)c(F)c1 [Example 140] ?
> 8.00

Also COc1ccccc1C(=O)NCc1ccc(-c2nn(-c3ccc(C)cc3)c(N)c2C(N)=O)cc1 [Example 44] ?
> 8.00

====

- testSystem: Recombinant BTK^WT kinase (Homo sapiens, UniProt Q06187)
- Sequence (Q06187 whole entry): as the sequence (Q06187 whole entry C481S) above, with S481C counted along it
- protocolDetails: BTK WT binding affinity (LanthaScreen TR-FRET)
- conditionNotes: Kinase Tracer 236, 5 h incubation
pIC50: −log10 of the molar value.
assayEndpoint: pIC50

Here is how some compounds turned out for pIC50.
compound | readoutValue
COc1ccccc1C(=O)NCc1ccc(-c2nn(CCC#N)c(N)c2C(N)=O)cc1 | 7.00 to 8.00
CCOC(=O)C1CCCC(n2nc(-c3ccc(CNC(=O)c4ccccc4OC)cc3)c(C(N)=O)c2N)C1 (single isomer, unassigned) [Example 55] | > 8.00
COc1ccccc1C(=O)NCc1ccc(-c2nn(-c3ccc(C)cc3)c(N)c2C(N)=O)cc1 | > 8.00
COc1ccccc1C(=O)NCc1ccc(-c2nn(C3C[C@@H]4C[C@@H]4C3)c(N)c2C(N)=O)cc1 (stereo partly drawn) | > 8.00
COc1ccccc1C(=O)NCc1ccc(-c2nn(C3CCOCC3F)c(N)c2C(N)=O)cc1 (single isomer, unassigned) [Example 96] | > 8.00
COc1ccc(F)cc1C(=O)NCc1cc(F)c(-c2nn(C(C)C(F)(F)F)c(N)c2C(N)=O)cc1F (stereo not drawn) | 7.00 to 8.00
COc1ccc(F)cc1C(=O)NCc1ccc(-c2nn([C@H]3CCOC3)c(N)c2C(N)=O)cc1 | > 8.00
COc1ccc(F)cc1C(=O)NCc1ccc(-c2nn([C@H](C)C(F)(F)F)c(N)c2C(N)=O)cc1 (single isomer, unassigned) [Example 163b] | > 8.00
COc1ccccc1C(=O)NCc1ccc(-c2nn(C(C)c3cccnc3)c(N)c2C(N)=O)cc1 (stereo not drawn) | 7.00 to 8.00
COc1ccccc1C(=O)NCc1ccc(-c2nn(-c3ccc(F)c(F)c3)c(N)c2C(N)=O)cc1 | > 8.00

Can you share its pIC50? I mean this compound: "COc1ccccc1C(=O)NCc1ccc(-c2nn(C3CCOCC3)c(N)c2C(N)=O)cc1"
> 8.00

Also "COc1ccccc1C(=O)NCc1ccc(-c2nn(C3CCCC3)c(C)c2C(N)=O)cc1" ?
7.00 to 8.00

Also "COc1ccccc1C(=O)NCc1ccc(-c2nn(C3CCOCC3)c(N)c2C(N)=O)c(F)c1F" ?
7.00 to 8.00

Also "COc1ccc(C)cc1C(=O)NCc1ccc(-c2nn(C3CCCC3)c(N)c2C(N)=O)cc1F" ?
> 8.00

Also COc1ccccc1C(=O)NCc1ccc(-c2nn(C3CCC(=O)C3)c(N)c2C(N)=O)cc1 (stereo not drawn) ?
> 8.00

====

Measured IC50, listed per entry.
- testSystem: Recombinant EGFR (Homo sapiens, UniProt P00533)
- Construct: purchased Invitrogen
- Sequence (P00533 25-1210): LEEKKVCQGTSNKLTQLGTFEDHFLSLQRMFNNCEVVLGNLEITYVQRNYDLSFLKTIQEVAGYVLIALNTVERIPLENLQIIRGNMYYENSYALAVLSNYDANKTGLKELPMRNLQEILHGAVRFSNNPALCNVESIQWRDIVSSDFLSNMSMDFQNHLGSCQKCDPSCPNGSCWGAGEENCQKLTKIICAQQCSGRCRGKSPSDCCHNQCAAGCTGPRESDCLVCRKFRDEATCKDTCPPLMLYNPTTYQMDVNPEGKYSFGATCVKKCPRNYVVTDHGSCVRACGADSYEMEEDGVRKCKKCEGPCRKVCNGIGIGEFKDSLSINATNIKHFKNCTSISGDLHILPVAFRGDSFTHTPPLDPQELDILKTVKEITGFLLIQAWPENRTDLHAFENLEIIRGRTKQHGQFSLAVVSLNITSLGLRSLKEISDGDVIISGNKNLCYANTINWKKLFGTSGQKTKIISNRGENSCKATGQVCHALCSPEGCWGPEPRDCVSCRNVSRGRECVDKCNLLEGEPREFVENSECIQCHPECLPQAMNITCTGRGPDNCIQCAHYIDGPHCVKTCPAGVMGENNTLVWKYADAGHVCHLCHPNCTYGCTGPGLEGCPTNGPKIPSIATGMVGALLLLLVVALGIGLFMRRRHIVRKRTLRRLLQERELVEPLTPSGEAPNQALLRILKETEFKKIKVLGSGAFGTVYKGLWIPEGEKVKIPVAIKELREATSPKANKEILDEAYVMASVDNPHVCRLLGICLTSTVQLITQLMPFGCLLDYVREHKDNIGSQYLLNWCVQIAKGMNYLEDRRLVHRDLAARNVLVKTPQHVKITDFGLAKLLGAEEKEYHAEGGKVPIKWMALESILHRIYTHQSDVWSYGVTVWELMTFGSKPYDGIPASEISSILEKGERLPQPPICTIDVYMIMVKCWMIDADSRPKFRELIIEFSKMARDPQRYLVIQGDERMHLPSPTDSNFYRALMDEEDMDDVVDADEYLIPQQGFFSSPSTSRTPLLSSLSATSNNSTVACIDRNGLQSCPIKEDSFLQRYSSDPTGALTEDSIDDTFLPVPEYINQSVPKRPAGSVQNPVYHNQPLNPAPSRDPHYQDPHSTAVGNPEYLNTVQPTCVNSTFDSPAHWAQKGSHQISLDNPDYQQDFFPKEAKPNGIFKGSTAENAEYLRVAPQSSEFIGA
- protocolDetails: EGFR binding affinity (LanthaScreen TR-FRET)
- conditionNotes: Kinase Tracer 199, 5 h incubation

Here is how some molecules turned out for IC50.
molecule | testSystem | assayEndpoint | readoutValue
COc1ccccc1C(=O)NCc1ccc(-c2nn(C3CN(C)CC3(F)F)c(N)c2C(N)=O)cc1F (centres unmarked) | Recombinant EGFR (Homo sapiens, UniProt P00533) | IC50 | 1 to 10 µM
COc1ccc(F)cc1C(=O)NCc1cc(F)c(-c2nn(C3CCCOC3)c(N)c2C(N)=O)cc1F (centres unmarked) | Recombinant EGFR (Homo sapiens, UniProt P00533) | IC50 | > 10 µM
COc1ccccc1C(=O)NCc1ccc(-c2nn(CC3CCCCC3)c(N)c2C(N)=O)cc1 | Recombinant EGFR (Homo sapiens, UniProt P00533) | IC50 | 0.1 to 1 µM
COc1ccccc1C(=O)NCc1ccc(-c2nn(C3Cc4ccccc4C3)c(N)c2C(N)=O)cc1 | Recombinant EGFR (Homo sapiens, UniProt P00533) | IC50 | 0.1 to 1 µM
COc1ccccc1C(=O)NCc1c(F)cc(-c2nn(C3CCCC3)c(N)c2C(N)=O)cc1F | Recombinant EGFR (Homo sapiens, UniProt P00533) | IC50 | > 10 µM

Can you share its IC50? I mean this molecule: COc1ccc(F)cc1C(=O)NCc1ccc(-c2nn(C3CCCOC3)c(N)c2C(N)=O)c(F)c1F (centres unmarked)
> 10 µM

Also "COc1ccccc1C(=O)NCc1ccc(-c2nn(C3CCCC3)c(N)c2C(N)=O)cn1" ?
> 10 µM

Also "COc1ccc(F)cc1C(=O)NCc1ccc(-c2nn(C3(C(F)(F)F)CCOCC3)c(N)c2C(N)=O)cc1" ?
1 to 10 µM

====

- testSystem: Recombinant EGFR (Homo sapiens)
- Construct: purchased Invitrogen
- protocolDetails: EGFR binding affinity (LanthaScreen TR-FRET)
- conditionNotes: Kinase Tracer 199, 5 h incubation
assayEndpoint: IC50

Here is how some molecules turned out for IC50.
molecule | IC50
COc1ccccc1C(=O)NCc1ccc(-c2nn(C3CCCC3)c(N)c2C(N)=O)cc1 | 100 to 1000 nM
COc1ccccc1C(=O)NCc1ccc(-c2nn(C3CCCOC3)c(N)c2C(N)=O)c(F)c1 (stereo not drawn) | > 10000 nM
CNc1c(C(N)=O)c(-c2ccc(CNC(=O)c3ccccc3OC)cc2)nn1C1CCOCC1 | 1000 to 10000 nM
COc1ccccc1C(=O)NCc1ccc(-c2nn(C3CC(O)c4ccccc43)c(N)c2C(N)=O)cc1 (stereo not drawn) | 100 to 1000 nM
COc1ccc(F)cc1C(=O)NCc1ccc(-c2nn(C(C)C(F)(F)F)c(N)c2C(N)=O)c(F)c1F (stereo not drawn) | 1000 to 10000 nM

# context switch: different molecule, same IC50
I'm curious: which IC50 was measured for "COc1ccc(F)cc1C(=O)NCc1ccc(-c2nn(CC(F)(F)F)c(N)c2C(N)=O)cc1" tested on Recombinant EGFR (Homo sapiens)?
1000 to 10000 nM

====

- testSystem: Recombinant BTK^WT kinase (Homo sapiens, UniProt Q06187)
- Construct: purchased Invitrogen
- protocolDetails: BTK WT binding affinity (LanthaScreen TR-FRET)
- conditionNotes: Kinase Tracer 236, 5 h incubation
pIC50: −log10 of the molar value.
assayEndpoint: pIC50

Here is how some compounds turned out for pIC50.
compound | testSystem | pIC50
COc1ccccc1C(=O)NCc1ccc(-c2nn(-c3ccccc3C)c(N)c2C(N)=O)cc1 [Example 47] | Recombinant BTK^WT kinase (Homo sapiens, UniProt Q06187) | 7.00 to 8.00
COc1ccccc1C(=O)NCc1ccc(-c2nn(C3CCCC3)c(Cl)c2C(N)=O)cc1 [Example 78] | Recombinant BTK^WT kinase (Homo sapiens, UniProt Q06187) | 7.00 to 8.00
COc1ccccc1C(=O)NCc1ccc(-c2nn(-c3cccc(F)c3)c(N)c2C(N)=O)cc1 [Example 32] | Recombinant BTK^WT kinase (Homo sapiens, UniProt Q06187) | > 8.00
COc1ccc(F)cc1C(=O)NCc1ccc(-c2nn(C3CCCC3)c(N)c2C(N)=O)c(F)c1F [Example 154] | Recombinant BTK^WT kinase (Homo sapiens, UniProt Q06187) | > 8.00
COc1ccccc1C(=O)NCc1ccc(-c2nn(C[C@H]3CCCNC3)c(N)c2C(N)=O)cc1 [Example 42] | Recombinant BTK^WT kinase (Homo sapiens, UniProt Q06187) | < 5.00
COc1ccc(F)cc1C(=O)NCc1ccc(-c2nn(CC(F)(F)F)c(N)c2C(N)=O)c(F)c1 [Example 125] | Recombinant BTK^WT kinase (Homo sapiens, UniProt Q06187) | 7.00 to 8.00
COc1ccccc1C(=O)NCc1ccc(-c2nn(C(C)CO)c(N)c2C(N)=O)cc1 (stereo not drawn) [Example 135] | Recombinant BTK^WT kinase (Homo sapiens, UniProt Q06187) | 7.00 to 8.00
COc1ccccc1C(=O)NCc1ccc(-c2nn(C3CCC(O)CC3)c(N)c2C(N)=O)cc1 (single isomer, unassigned) [Example 34b] | Recombinant BTK^WT kinase (Homo sapiens, UniProt Q06187) | > 8.00

Can you share its pIC50? I mean this compound: COc1ccccc1C(=O)NCc1ccc(-c2nn(C3CCOC(C)C3)c(N)c2C(N)=O)cc1 (mixture of isomers) [Example 85]
> 8.00

Also CNC(=O)c1c(-c2ccc(CNC(=O)c3ccccc3OC)cc2)nn(C2CCCC2)c1N [Example 69] ?
< 5.00

Also COc1ccc(F)cc1C(=O)NCc1ccc(-c2nn(C3CN(C)CC3(F)F)c(N)c2C(N)=O)cc1 (stereo not drawn) [Example 199] ?
> 8.00

Also COc1ccccc1C(=O)NCc1cc(-c2nn(C3CCCC3)c(N)c2C(N)=O)ccc1F [Example 118] ?
6.00 to 7.00

Also COc1ccccc1C(=O)NCc1ccc(-c2nn(C3CCCC3)c(N)c2C(N)=O)cc1C [Example 62] ?
> 8.00

Also CCC(n1nc(-c2ccc(CNC(=O)c3cc(F)ccc3OC)cc2)c(C(N)=O)c1N)C(F)(F)F (stereo not drawn) [Example 181] ?
> 8.00

Also COc1ccccc1C(=O)NCc1ccc(-c2nn(-c3cc(F)ccc3F)c(N)c2C(N)=O)cc1 [Example 61] ?
> 8.00

Also COc1ccccc1C(=O)NCc1ccc(-c2nn(C3CCCC3)c(N)c2C(N)=O)cn1 [Example 134] ?
7.00 to 8.00

Also COc1ccc(F)cc1C(=O)NCc1ccc(-c2nn(C3CCOCC3)c(N)c2C(N)=O)cc1 [Example 115] ?
> 8.00

Also COc1ccccc1C(=O)NCc1ccc(-c2nn([C@@H]3CCc4ccccc43)c(N)c2C(N)=O)cc1 [Example 23] ?
> 8.00

Also COc1ccccc1C(=O)NCc1ccc(-c2nn([C@H]3CCOC3)c(C(F)F)c2C(N)=O)cc1 [Example 112] ?
6.00 to 7.00

Also COc1ccccc1C(=O)NCc1ccc(-c2nn(-c3ccccn3)c(N)c2C(N)=O)cc1 [Example 53] ?
> 8.00

Also COc1ccccc1C(=O)NCc1ccc(-c2nn(C3CCCOC3)c(N)c2C(N)=O)c(F)c1F (stereo not drawn) [Example 157] ?
> 8.00

Also COc1ccccc1C(=O)NCc1ccc(-c2nn(C3CNCC3(F)F)c(N)c2C(N)=O)cc1 (stereo not drawn) [Example 144] ?
> 8.00

Also COc1ccccc1C(=O)NCc1ccc(-c2nn(C3CCCCC3)c(N)c2C(N)=O)cc1 [Example 18] ?
> 8.00

Also COc1ccccc1C(=O)NCc1ccc(-c2nn(C3CCOC3)c(N)c2C(N)=O)c(F)c1 (stereo not drawn) [Example 100] ?
7.00 to 8.00

Also COc1ccc(F)cc1C(=O)NCc1ccc(-c2nn(C(C)C3CCOCC3)c(N)c2C(N)=O)cc1 (stereo not drawn) [Example 161] ?
7.00 to 8.00

Also COc1ccc(F)cc1C(=O)NCc1c(F)cc(-c2nn(C3CCCC3)c(N)c2C(N)=O)cc1F [Example 139] ?
7.00 to 8.00

Also COc1ccccc1C(=O)NCc1ccc(-c2nn(C3CC(C)(C)OC3(C)C)c(N)c2C(N)=O)cc1 (stereo not drawn) [Example 82] ?
7.00 to 8.00
